Overview of reported pIC50 across a group of sequences:
tgt: HLA-A*11:01
assay: IEDB peptide-MHC binding, purified MHC/competitive/radioactivity; bounds were set here for any values at or beyond the usual limits of such assays
applied.conditions: source organism: Mus musculus
Convention used: pIC50 is expressed as -log10 of the molar concentration.

TLALEVARQK; 5.48

Consider the additional sequence presented here.
Check the records and state pIC50 for `AINSEMFLR` 6.68

* * *

IC50 for assorted sequences
tgt: HLA-A*03:01
assay: IEDB peptide-MHC binding, purified MHC/competitive/radioactivity; bounds were set here for any values at or beyond the usual limits of such assays
applied.conditions: source organism: Mus musculus
Report the value in nM with no unit label.

// solved cases for IC50 follow
LALEVARQKR; 43600
TLALEVARQK; 605

Query sequence follows.
Using the record for `AINSEMFLR` , state its measured IC50. 428

* * *

tgt: HLA-A*31:01
assay: IEDB peptide-MHC binding, purified MHC/competitive/radioactivity; bounds were set here for any values at or beyond the usual limits of such assays
applied.conditions: source organism: Mus musculus
parameter.measured: pIC50
Friendly reminder that pIC50 comes from taking -log10 of the concentration in mol/L.

LALEVARQKR; 4.97
TLALEVARQK; 4.89

Query sequence follows.
Please report the measured pIC50 for `AINSEMFLR` 7.17

* * *

tgt: HLA-A*33:01
assay: IEDB peptide-MHC binding, purified MHC/competitive/radioactivity; bounds were set here for any values at or beyond the usual limits of such assays
applied.conditions: source organism: Homo sapiens
parameter.measured: pIC50
The quantity pIC50 is defined as the negative base-10 logarithm of the molar concentration.

Determine from records and report pIC50 for `LALEGSLQKR` 5.49
